# SYSTEM_UNDER_TEST: Progesterone receptor (Homo sapiens, UniProt P06401)
# Sequence (P06401 whole entry): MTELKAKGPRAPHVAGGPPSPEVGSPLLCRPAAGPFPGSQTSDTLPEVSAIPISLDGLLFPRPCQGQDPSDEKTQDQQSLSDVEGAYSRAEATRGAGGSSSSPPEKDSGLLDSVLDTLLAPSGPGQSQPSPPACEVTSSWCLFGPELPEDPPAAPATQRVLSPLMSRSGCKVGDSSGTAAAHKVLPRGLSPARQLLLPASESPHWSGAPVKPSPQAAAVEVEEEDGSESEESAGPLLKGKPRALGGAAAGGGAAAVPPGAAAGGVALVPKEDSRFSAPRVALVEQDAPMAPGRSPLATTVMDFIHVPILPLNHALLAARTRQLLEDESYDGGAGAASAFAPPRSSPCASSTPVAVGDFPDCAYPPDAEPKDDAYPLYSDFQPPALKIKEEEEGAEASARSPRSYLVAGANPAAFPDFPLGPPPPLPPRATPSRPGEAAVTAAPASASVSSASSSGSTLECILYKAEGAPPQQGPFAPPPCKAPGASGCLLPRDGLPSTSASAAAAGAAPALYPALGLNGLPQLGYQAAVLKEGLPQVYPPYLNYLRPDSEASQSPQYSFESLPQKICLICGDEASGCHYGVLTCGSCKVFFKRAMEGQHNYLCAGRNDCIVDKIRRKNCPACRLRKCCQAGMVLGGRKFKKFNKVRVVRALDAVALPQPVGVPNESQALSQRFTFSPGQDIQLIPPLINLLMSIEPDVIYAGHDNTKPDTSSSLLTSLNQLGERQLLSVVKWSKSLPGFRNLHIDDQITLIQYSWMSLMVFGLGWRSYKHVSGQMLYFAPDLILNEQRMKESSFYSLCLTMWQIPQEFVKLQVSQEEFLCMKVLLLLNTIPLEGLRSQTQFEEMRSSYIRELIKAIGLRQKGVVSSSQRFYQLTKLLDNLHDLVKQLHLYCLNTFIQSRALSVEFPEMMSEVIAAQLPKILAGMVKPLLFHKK
# ASSAY_NAME: Binding towards human progesterone receptor
Below, each entry is listed with its recorded Ki.

STRUCTURE_SMILES_STRING | LIMIT_QUALIFIER | Ki, nM
CC1=CC(C)(C)Nc2ccc3c(c21)COc1c(F)cc(Cl)cc1-3 | = | 5.6
CC1=CC(C)(C)Nc2ccc3c(c21)COc1c(F)cc(F)cc1-3 | = | 13.5
CC1=CC(C)(C)Nc2ccc3c(c21)COc1c(Br)cc(Br)cc1-3 | > | 1000
COc1ccc2c(c1)OCc1c-2ccc2c1C(C)=CC(C)(C)N2 | = | 357

* * *

// endpoint log10 IC50 / system Androgen receptor (Homo sapiens, UniProt P10275)
PARAMETER_MEASURED: log10 IC50 (log10 of the value in nM)

COMPOUND | log10 IC50
CC1CC(C)(C)Nc2ccc3c(c21)COc1ccc([N+](=O)[O-])cc1-3 (configuration not stated) | 1.80
CC1=CC(C)(C)Nc2ccc3c(c21)COc1ccc(Cl)cc1-3 | 2.90
CC1=CC(C)(C)Nc2ccc3c(c21)COc1c(F)cc(C#N)cc1-3 | 1.78
CC1=CC(C)(C)Nc2ccc3c(c21)COc1ccc(Br)cc1-3 | 2.60
CC1=CC(C)(C)Nc2ccc3c(c21)COc1ccc([N+](=O)[O-])cc1-3 | 1.78
CC1=CC(C)(C)Nc2ccc3c(c21)COc1ccc(F)cc1-3 | 3.10
CC1=CC(C)(C)Nc2ccc3c(c21)COc1c(F)cc(Br)cc1-3 | 1.95

* * *

System: Progesterone receptor (Homo sapiens, UniProt P06401) | Read-out: log10(EC50)
PARAMETER_MEASURED: log10(EC50) (log10 of the value in nM)

COMPOUND | PARAMETER_MEASURED | RECORDED_VALUE
CC1=CC(C)(C)Nc2ccc3c(c21)COc1c(F)cccc1-3 | log10(EC50) | 2.07
CC1=CC(C)(C)Nc2ccc3c(c21)COc1c(Cl)cccc1-3 | log10(EC50) | 2.76
CC1=CC(C)(C)Nc2ccc3c(c21)COc1c(F)cc(Br)cc1-3 | log10(EC50) | 1.76
CC1=CC(C)(C)Nc2ccc3c(c21)COc1c-3cc(Br)c(C=O)c1F | log10(EC50) | 2.76
CC1=CC(C)(C)Nc2ccc3c(c21)COc1ccc(Br)cc1-3 | log10(EC50) | 1.65
Cc1cc(F)cc2c1OCc1c-2ccc2c1C(C)CC(C)(C)N2 (stereo not drawn) | log10(EC50) | 2.80
CC1CC(C)(C)Nc2ccc3c(c21)COc1c(F)cc(F)cc1-3 (stereo not drawn) | log10(EC50) | 1.60
CC1CC(C)(C)Nc2ccc3c(c21)COc1ccc([N+](=O)[O-])cc1-3 (stereo not drawn) | log10(EC50) | 1.72

* * *

# SYSTEM_UNDER_TEST: Progesterone receptor (Homo sapiens)
Listed next: entries and their corresponding Ki.
PARAMETER_MEASURED: Ki

COMPOUND | PARAMETER_MEASURED | RECORDED_VALUE
CC1=CC(C)(C)Nc2ccc3c(c21)COc1cc(C(F)(F)F)ccc1-3 | Ki | > 1000 nM
CC1=CC(C)(C)Nc2ccc3c(c21)COc1ccc(-c2ccccc2)cc1-3 | Ki | > 1000 nM
CC1CC(C)(C)Nc2ccc3c(c21)COc1ccc([N+](=O)[O-])cc1-3 (stereo not drawn) | Ki | 144 nM

These data points were gathered from ChEMBL document CHEMBL1144945.
